- measured.on: Phosphatidylinositol 4,5-bisphosphate 3-kinase catalytic subunit alpha isoform (Homo sapiens)
- measurement.context: at 1 µM
quantity.kind: inhibition (%)

[[record]]
molecule = "CCNC(=O)O[C@H]1CN[C@H](C#Cc2cc3ncnc(Nc4ccc(OCc5cccc(F)c5)c(Cl)c4)c3s2)C1"
measurement = 29

[[record]]
molecule = "COc1ccc2c(-c3ccnc(Nc4cccc(OC(F)(F)F)c4)n3)cnn2n1"
measurement = 6.99

[[record]]
molecule = "COc1cc(N2CCN(C(C)C)CC2)ccc1Nc1nc(Nc2ccc(F)cc2C(N)=O)c2cc[nH]c2n1"
measurement = 0.95

[[record]]
molecule = "COc1ccc(CNC(=O)c2ccc(-c3cc(-c4nnc(C)o4)ccc3C)cc2)cc1"
measurement = -1.87

[[record]]
molecule = "CCN(CC)S(=O)(=O)c1ccc(OC)c(Nc2ncc(-c3ccccc3)o2)c1"
measurement = -2.02

[[record]]
molecule = "NC(=O)c1sc(-n2cnc3ccc(C(F)(F)F)cc32)cc1OCc1ccccc1Br"
measurement = 4.29

[[record]]
molecule = "CC(C)(CO)CNC(=O)c1ccc2c(c1)/C(=N/Nc1ccc(S(N)(=O)=O)cc1)C(=O)N2"
measurement = -1.12

[[record]]
molecule = "COc1cc2ncn(-c3cc(OCc4ccccc4C(F)(F)F)c(C(=O)N(C)C)s3)c2cc1OC"
measurement = 1.16

[[record]]
molecule = "CNC(=O)c1cc(-c2ccc(F)cc2)cc(-c2ccc(S(=O)(=O)N3CCCC3)cc2)c1N"
measurement = 1.39

[[record]]
molecule = "NS(=O)(=O)c1ccc(Nc2ncc(-c3ccccc3)o2)cc1"
measurement = 2.69

[[record]]
molecule = "CCn1c(-c2nonc2N)nc2c(C#CC(C)(C)O)nc(OC[C@H](N)c3ccccc3)cc21"
measurement = 1.06

[[record]]
molecule = "CCc1nn2ncccc2c1-c1ccnc(NC2CC2)n1"
measurement = 1.26

[[record]]
molecule = "Fc1ccc(-c2cc(-c3c[nH]nc3-c3ccccn3)ccn2)cc1"
measurement = 3.51

[[record]]
molecule = "CN1CCC(n2cnc(-c3ccc(F)cc3)c2-c2ccnc(Nc3ccccc3)n2)CC1"
measurement = 1.8

[[record]]
molecule = "Nc1ncc(-c2cccc(S(N)(=O)=O)c2)c2scc(-c3ccc(F)c(Cl)c3)c12"
measurement = 8.82

[[record]]
molecule = "c1ccc(-c2nc3n(c2-c2ccc4c(c2)OCO4)CCC3)nc1"
measurement = 7.23

[[record]]
molecule = "Nc1nc(-c2ccc(F)cc2)c(-c2ccc3ncccc3n2)s1"
measurement = 20.4

[[record]]
molecule = "c1cc(-c2cnn3nc(N4CCOCC4)ccc23)nc(NC2CC2)n1"
measurement = 6.22

[[record]]
molecule = "[O-][S+]1CCN(Cc2ccc(-c3ccc4ncnc(Nc5ccc(OCc6cccc(F)c6)c(Cl)c5)c4c3)o2)CC1"
measurement = 6.58

[[record]]
molecule = "Fc1ccc(-c2nn3ccccc3c2-c2ccncc2)cc1"
measurement = 1.14


###

Entries annotated with measured inhibition
- Test system: Tyrosine-protein kinase ABL1 (Homo sapiens), P00519 [T315I]
- measurement.context: at 1 µM
quantity.kind: inhibition (%)

[[record]]
molecule = "CCc1nn2ncccc2c1-c1ccnc(NC2CC2)n1"
measured_on = "Tyrosine-protein kinase ABL1 (Homo sapiens), P00519 [T315I]"
quantity_kind = "inhibition"
measurement = 1.06

[[record]]
molecule = "COc1cc(/C=N/Nc2ncnc3[nH]ncc23)ccc1O"
measured_on = "Tyrosine-protein kinase ABL1 (Homo sapiens), P00519 [T315I]"
quantity_kind = "inhibition"
measurement = 47.4

[[record]]
molecule = "O=C(Nc1n[nH]c2cc(-c3ccc(F)cc3)ccc12)C1CC1"
measured_on = "Tyrosine-protein kinase ABL1 (Homo sapiens), P00519 [T315I]"
quantity_kind = "inhibition"
measurement = 69.4

[[record]]
molecule = "O=C(O[C@H]1CN[C@H](C#Cc2cc3ncnc(Nc4ccc(Cc5ccccc5)cc4)c3s2)C1)N1CCOCC1"
measured_on = "Tyrosine-protein kinase ABL1 (Homo sapiens), P00519 [T315I]"
quantity_kind = "inhibition"
measurement = 0.76

[[record]]
molecule = "CS(=O)(=O)CCNCc1coc(-c2ccc3ncnc(Nc4ccc(OCc5ccccc5)cc4)c3c2)c1"
measured_on = "Tyrosine-protein kinase ABL1 (Homo sapiens), P00519 [T315I]"
quantity_kind = "inhibition"
measurement = 4.02

[[record]]
molecule = "COc1ccc(-c2oc3ncnc(N)c3c2-c2ccc(NC(=O)Nc3cc(C(F)(F)F)ccc3F)cc2)cc1"
measured_on = "Tyrosine-protein kinase ABL1 (Homo sapiens), P00519 [T315I]"
quantity_kind = "inhibition"
measurement = 64.3

[[record]]
molecule = "COc1cccc(-n2ncc3c(N/N=C/c4ccc(F)cc4)ncnc32)c1"
measured_on = "Tyrosine-protein kinase ABL1 (Homo sapiens), P00519 [T315I]"
quantity_kind = "inhibition"
measurement = 38.8

[[record]]
molecule = "COc1ccc(CNC(=O)c2ccc(-c3cc(-c4nnc(C)o4)ccc3C)cc2)cc1"
measured_on = "Tyrosine-protein kinase ABL1 (Homo sapiens), P00519 [T315I]"
quantity_kind = "inhibition"
measurement = 6.32

[[record]]
molecule = "CS(=O)(=O)CCNCc1ccc(-c2ccc3ncnc(Nc4ccc(OCc5ccccc5)c(C(F)(F)F)c4)c3c2)o1"
measured_on = "Tyrosine-protein kinase ABL1 (Homo sapiens), P00519 [T315I]"
quantity_kind = "inhibition"
measurement = 2.46

[[record]]
molecule = "N#Cc1c(NC(=O)c2ccc(F)cc2)sc2c1CCCC2"
measured_on = "Tyrosine-protein kinase ABL1 (Homo sapiens), P00519 [T315I]"
quantity_kind = "inhibition"
measurement = -0.02

[[record]]
molecule = "COC(=O)c1sc(-n2cnc3cc(OC)c(OC)cc32)cc1OCc1ccccc1C(F)(F)F"
measured_on = "Tyrosine-protein kinase ABL1 (Homo sapiens), P00519 [T315I]"
quantity_kind = "inhibition"
measurement = 4.91

[[record]]
molecule = "NC(=O)c1sc(-n2cnc3ccc(C(F)(F)F)cc32)cc1OCc1ccccc1Br"
measured_on = "Tyrosine-protein kinase ABL1 (Homo sapiens), P00519 [T315I]"
quantity_kind = "inhibition"
measurement = 3.2

[[record]]
molecule = "COc1ccc(-c2cc3c(N)ncnc3o2)cc1"
measured_on = "Tyrosine-protein kinase ABL1 (Homo sapiens), P00519 [T315I]"
quantity_kind = "inhibition"
measurement = 2.97

[[record]]
molecule = "NS(=O)(=O)c1ccc(N/N=C2\\C(=O)Nc3ccc4ncccc4c32)cc1"
measured_on = "Tyrosine-protein kinase ABL1 (Homo sapiens), P00519 [T315I]"
quantity_kind = "inhibition"
measurement = 47.1

[[record]]
molecule = "c1ccc(COc2ccc(Nc3ncnc4ccc(-c5ccco5)cc34)cc2)cc1"
measured_on = "Tyrosine-protein kinase ABL1 (Homo sapiens), P00519 [T315I]"
quantity_kind = "inhibition"
measurement = 1.49

[[record]]
molecule = "N#Cc1c(NC(=O)CN2CCOCC2)sc2c1CCCC2"
measured_on = "Tyrosine-protein kinase ABL1 (Homo sapiens), P00519 [T315I]"
quantity_kind = "inhibition"
measurement = 5.24

[[record]]
molecule = "Cc1ccc(O)cc1Nc1ccnc2cc(-c3ccccn3)ccc12"
measured_on = "Tyrosine-protein kinase ABL1 (Homo sapiens), P00519 [T315I]"
quantity_kind = "inhibition"
measurement = 50.7

[[record]]
molecule = "[O-][S+]1CCN(Cc2ccc(-c3ccc4ncnc(Nc5ccc(OCc6cccc(F)c6)c(Cl)c5)c4c3)o2)CC1"
measured_on = "Tyrosine-protein kinase ABL1 (Homo sapiens), P00519 [T315I]"
quantity_kind = "inhibition"
measurement = 3.02

[[record]]
molecule = "Cc1ccc2c(-c3ccnc(Nc4ccccc4)n3)c(-c3ccc(F)cc3)nn2n1"
measured_on = "Tyrosine-protein kinase ABL1 (Homo sapiens), P00519 [T315I]"
quantity_kind = "inhibition"
measurement = 20.2

[[record]]
molecule = "COC(=O)Nc1nc2ccc(S(=O)(=O)c3ccc(NC(=O)Nc4cc(C(F)(F)F)ccc4F)cc3)cc2[nH]1"
measured_on = "Tyrosine-protein kinase ABL1 (Homo sapiens), P00519 [T315I]"
quantity_kind = "inhibition"
measurement = 1.15

